test: Pharmacokinetic test in mice; format: in vivo; settings: mouse, plasma; male ICR mice, intravenous injection 5 mg/kg
Strictly below 30 mL/min/kg in clearance: condition met. Otherwise: condition not met.

**Q:** Given O=C(Cc1ccc(-c2ccc(OCCN3C[C@H]4COC[C@H]4C3)cc2Cl)cn1)NCc1ccccc1 [Compound I-30] , is recorded clearance strictly lower than 30 mL/min/kg?
**A:** condition not met

**Q:** Given C[C@H]1COCCN1CCOc1ccc(-c2ccc(CC(=O)NCc3ccccc3)nc2)c(F)c1 [Compound I-24A] , is recorded clearance strictly lower than 30 mL/min/kg?
**A:** condition not met

**Q:** Given O=C(Cc1ccc(-c2ccc(OCCN3CCOCC3)cc2)cn1)NCc1ccccc1 [Control compound I, Tirbanibulin, reference compound] , is recorded clearance strictly lower than 30 mL/min/kg?
**A:** condition met

**Q:** Given Cc1cc(OCCN2CC3(COC3)C2)ccc1-c1ccc(CC(=O)NCc2ccccc2)nc1 [Compound I-5] , is recorded clearance strictly lower than 30 mL/min/kg?
**A:** condition not met
